# Target: hPTP1B1-400 (Homo sapiens)
# Sequence (P18031 1-400): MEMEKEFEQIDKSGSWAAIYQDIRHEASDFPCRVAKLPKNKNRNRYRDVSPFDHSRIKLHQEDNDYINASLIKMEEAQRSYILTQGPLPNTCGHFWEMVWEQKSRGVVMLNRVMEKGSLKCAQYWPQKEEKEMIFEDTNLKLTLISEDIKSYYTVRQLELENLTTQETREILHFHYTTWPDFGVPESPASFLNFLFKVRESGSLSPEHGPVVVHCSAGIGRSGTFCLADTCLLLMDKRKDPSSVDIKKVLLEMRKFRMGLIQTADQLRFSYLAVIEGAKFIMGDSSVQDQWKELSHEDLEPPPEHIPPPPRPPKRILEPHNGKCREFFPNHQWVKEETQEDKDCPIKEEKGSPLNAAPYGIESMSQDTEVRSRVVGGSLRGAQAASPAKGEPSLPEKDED
# Assay: PTP1B inhibition assay (spectrophotometric, 4-nitrophenyl phosphate)
# Type: biochemical
# Measurement setup: negative log of the IC50 in Molar
Please provide measured pIC50 for the entries that follow.
# print the numeric value only

State the measured pIC50 (hPTP1B1-400 (Homo sapiens)) of CC(=O)OC[C@H]1O[C@@H](Oc2cc(O)cc3oc(=O)cc(-c4ccc(O)c(O)c4)c23)[C@H](O)[C@@H](O)[C@H]1O
3.59

State the measured pIC50 (hPTP1B1-400 (Homo sapiens)) of C/C(=C/CC[C@H](C)[C@@H]1CC[C@]2(C)C3=CC[C@H]4C(C)(C)[C@H](O)CC[C@]4(C)[C@H]3CC[C@@]12C)C(=O)O [Compound 49, 3α-Hydroxymasticadienonic acid]
3.82

State the measured pIC50 (hPTP1B1-400 (Homo sapiens)) of COc1ccc([C@H]2OC[C@H]3[C@@H]2CO[C@@H]3c2ccc3c(c2OC)OCO3)cc1OC
3.90

----------
# Target: hPTP1B1-400 (Homo sapiens)
# Assay: PTP1B inhibition assay (spectrophotometric, 4-nitrophenyl phosphate)
# Assay type: biochemical
# Measurement setup: enzyme 66 nM, 4-NP 0.125 mM, Tris-HCl pH 6.8, 20 min, room temperature; read-out: IC50
# Protocol: The inhibitory activity was determined as a percentage compared to the blank (Buffer) according to the following equation: %InhibitionPTP1B=1−A405s/A405b×100%, (1) where A405(s) is the ΔA of the sample (At20 − At0), A405(b) is the ΔA of the blank obtained in the same manner as that of the sample. Using the data obtained, the enzyme inhibition curve was plotted, for which the average percentage of inhibition was plotted as a function of the inhibitor concentration.
Measure: pIC50
By convention, pIC50 is the negative base-10 log of a molar concentration.

Please give the documented pIC50 of O=c1c(O[C@@H]2O[C@H](CO)[C@H](O)[C@H](O)[C@H]2O)c(-c2ccc(O)cc2)oc2cc(O)cc(O)c12
3.07

Please give the documented pIC50 of COc1cc(O[C@@H]2O[C@H](CO[C@@H]3OCC(O)(CO)[C@H]3O)[C@@H](O)[C@H](O)[C@H]2O)c2c(-c3ccc(O)c(O)c3)cc(=O)oc2c1 (stereo partly drawn)
3.45

Please give the documented pIC50 of C=C(C)[C@H]1COc2c(C)cc3oc4c(C[C@H](O)C(C)(C)O)ccc(O)c4c(=O)c3c2[C@@H]1O [Compound 7, Tajixanthone hydrate]
4.08

Please give the documented pIC50 of COc1c(O)cc2ccc3cccc(O)c3c2c1OC
4.32

Please give the documented pIC50 of CC1(C)C=Cc2cc3ccc(=O)oc3cc2O1
3.06

Please give the documented pIC50 of COc1cc(-c2cc(=O)c3c(O)c(O)c(OC)cc3o2)ccc1O [Compound 5, 4',5,6-Trihydroxy-3',7-dimethoxyflavone]
4.24

Entry source: paper PMC10644722
